Assay: Octanol-neutral buffer distribution coefficient, log D at pH 7.4
Assay type: physicochemical

Compound	logD
Cc1nc(-c2csc3ccccc23)n(C2CCC3(CC2)OCCO3)c1Cc1ccc(Cl)cc1	4.6
CCc1ccccc1C(=O)N(C1CCC2(CC1)OCCO2)C(Cc1ccc(Cl)cc1)c1noc(C)n1 (racemic)	> 5
Clc1ccc(Cc2cnc(-c3csc4ccccc34)n2C2CCC3(CC2)OCCO3)cc1	> 4
CCc1ccccc1C(=O)N(C1CCC2(CC1)OCCO2)C(Cc1ccc(Cl)cc1)CN(C)C (racemic)	> 5
CN(C)Cc1ccccc1C(=O)N(CCc1ccc(Cl)cc1)C1CCC2(CC1)OCCO2	3.3
CN(C)CC(Cc1ccc(Cl)cc1)N(C(=O)c1cccc2ccccc12)C1CCC2(CC1)OCCO2 (racemic)	4.6
COc1cccc(-c2ncc(Cc3ccc(Cl)cc3)n2C2CCC3(CC2)OCCO3)c1	4
Clc1ccc2nc(-c3csc4ccccc34)n(C3CCC4(CC3)OCCO4)c2c1Cl	> 5
CCc1ccccc1C(=O)N(C1CCC2(CC1)OCCO2)[C@H](CCN1CCOCC1)Cc1ccc(Cl)cc1	3.4

====

Biological target: C5a anaphylatoxin chemotactic receptor 1 (Homo sapiens)
Sequence (P21730 whole entry): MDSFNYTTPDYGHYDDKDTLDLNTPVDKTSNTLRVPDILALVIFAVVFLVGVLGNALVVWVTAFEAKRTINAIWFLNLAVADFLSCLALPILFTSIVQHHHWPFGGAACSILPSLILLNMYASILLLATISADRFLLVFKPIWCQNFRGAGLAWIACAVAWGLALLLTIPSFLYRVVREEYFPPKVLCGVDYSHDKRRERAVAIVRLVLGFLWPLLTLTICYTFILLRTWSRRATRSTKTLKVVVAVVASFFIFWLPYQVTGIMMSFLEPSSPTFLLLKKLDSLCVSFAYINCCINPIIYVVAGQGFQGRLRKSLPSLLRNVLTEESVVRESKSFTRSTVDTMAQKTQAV
Assay: Displacement of [125I]C5a from C5a receptor in cAMP differentiated human U937 cells by filtration assay
Type: cell-based, U-937
pIC50: −log10 of the molar value.
Outcome measure: pIC50

Structure notation	Test target	Outcome measure	Censoring sign	Value observed
Cc1nc(-c2csc3ccccc23)n(C2CCC3(CC2)OCCO3)c1Cc1ccc(Cl)cc1	C5a anaphylatoxin chemotactic receptor 1 (Homo sapiens)	pIC50	=	7.05
Clc1ccc(Cc2nnc(-c3cccc4ccccc34)n2C2CCC3(CC2)OCCO3)cc1	C5a anaphylatoxin chemotactic receptor 1 (Homo sapiens)	pIC50	<	6.00
Clc1ccc(Cc2cnc(-c3cccc4ccccc34)n2C2CCC3(CC2)OCCO3)cc1	C5a anaphylatoxin chemotactic receptor 1 (Homo sapiens)	pIC50	=	7.05
Clc1cccc2nc(-c3csc4ccccc34)n(C3CCC4(CC3)OCCO4)c12	C5a anaphylatoxin chemotactic receptor 1 (Homo sapiens)	pIC50	=	6.49
CCc1ccccc1C(=O)N(C1CCC2(CC1)OCCO2)[C@H](CCN(C)C)Cc1ccc(Cl)cc1	C5a anaphylatoxin chemotactic receptor 1 (Homo sapiens)	pIC50	<	6.00

====

Molecular target: C5a anaphylatoxin chemotactic receptor 1 (Homo sapiens)
Test: Antagonist activity at C5a receptor assessed as inhibition of C5a-induced elastase release in human neutrophils during degranulation preincubated 5 mins prior to C5a challenge using p-nitroanilide as substrate
Assay type: functional
Outcome measure: IC50 (nM)

Compound	Value observed
CCc1ccccc1C(=O)N(C1CCC2(CC1)OCCO2)C(Cc1ccc(Cl)cc1)CN(C)C (racemic)	25
Clc1ccc(Cc2cnc(-c3cccc4ccccc34)n2C2CCC3(CC2)OCCO3)cc1	877
COC(=O)C(Cc1ccc(Cl)cc1)N(C(=O)c1csc2ccccc12)C1CCC2(CC1)OCCO2 (racemic)	172
COCC(Cc1ccc(Cl)cc1)N(C(=O)c1csc2ccccc12)C1CCC2(CC1)OCCO2 (racemic)	27
CCOC(=O)C(Cc1ccc(Cl)cc1)N(C(=O)c1cccc2ccccc12)C1CCC2(CC1)OCCO2 (racemic)	32
CN(C)CC(Cc1ccc(Cl)cc1)N(C(=O)c1cccc2ccccc12)C1CCC2(CC1)OCCO2 (racemic)	22
c1ccc2c(-c3ncc(CC4CCCCC4)n3C3CCC4(CC3)OCCO4)csc2c1	850
CCc1ccccc1C(=O)N(C1CCC2(CC1)OCCO2)C(Cc1ccc(Cl)cc1)c1noc(C)n1 (racemic)	40
